- studySystem: Tyrosine-protein kinase ABL1 (Homo sapiens)
- Sequence (P00519 whole entry): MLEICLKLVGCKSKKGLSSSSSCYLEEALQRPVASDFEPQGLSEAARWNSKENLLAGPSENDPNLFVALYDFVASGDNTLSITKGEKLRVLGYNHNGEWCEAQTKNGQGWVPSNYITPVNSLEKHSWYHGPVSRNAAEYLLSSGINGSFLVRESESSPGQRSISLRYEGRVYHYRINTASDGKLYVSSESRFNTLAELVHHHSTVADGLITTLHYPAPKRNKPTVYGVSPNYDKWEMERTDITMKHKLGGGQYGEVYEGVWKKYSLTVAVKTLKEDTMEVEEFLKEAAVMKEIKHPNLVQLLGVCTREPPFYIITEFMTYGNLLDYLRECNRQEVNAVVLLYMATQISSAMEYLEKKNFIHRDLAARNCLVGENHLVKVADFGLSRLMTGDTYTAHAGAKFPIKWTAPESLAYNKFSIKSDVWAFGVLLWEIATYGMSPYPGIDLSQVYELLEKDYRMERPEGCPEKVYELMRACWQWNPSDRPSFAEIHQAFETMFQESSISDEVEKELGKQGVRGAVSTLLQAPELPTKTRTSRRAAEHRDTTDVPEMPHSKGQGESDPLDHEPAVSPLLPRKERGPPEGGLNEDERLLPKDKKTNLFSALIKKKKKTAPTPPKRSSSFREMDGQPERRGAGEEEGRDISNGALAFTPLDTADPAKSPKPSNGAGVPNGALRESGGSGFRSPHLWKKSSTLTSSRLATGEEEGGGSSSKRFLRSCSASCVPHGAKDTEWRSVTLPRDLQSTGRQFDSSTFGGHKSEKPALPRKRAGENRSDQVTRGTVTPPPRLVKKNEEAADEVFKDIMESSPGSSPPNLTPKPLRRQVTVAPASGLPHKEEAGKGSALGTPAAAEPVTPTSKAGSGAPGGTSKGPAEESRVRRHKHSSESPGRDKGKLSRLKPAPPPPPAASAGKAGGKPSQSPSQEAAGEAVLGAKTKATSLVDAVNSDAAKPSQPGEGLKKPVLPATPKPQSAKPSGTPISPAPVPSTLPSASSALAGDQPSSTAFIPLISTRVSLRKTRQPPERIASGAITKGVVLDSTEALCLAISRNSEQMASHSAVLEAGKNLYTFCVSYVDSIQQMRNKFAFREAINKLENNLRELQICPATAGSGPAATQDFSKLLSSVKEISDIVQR
experimentalReadout: pIC50
Answers are plain numbers, as −log10 of the molar value.

Cc1ccc(NC(=O)c2cccc(C(F)(F)F)c2)cc1C(=O)Nc1cnc(Nc2ccc(N3CCN(C)CC3)cc2)nc1 has a reported pIC50 of 8.70

----------
- System: Blood
- testDescription: Inhibition of anti-CD3-induced IL2 production in human whole blood by ELISA
- Format: functional, tissue-based
pIC50: −log10 of the molar value.
pIC50 vs 8: at or above is Fulfilled, below is Not fulfilled.

The examples below pair each entry with its known result.
smilesStr	assignedCategory
Cc1ccc(NC(=O)c2cccc(C(F)(F)F)c2)cc1C(=O)Nc1cnc(N)nc1	Not fulfilled
COc1cc(OC)cc(C(=O)Nc2ccc(C)c(C(=O)Nc3cnc(Nc4ccc(N5CCN(C)CC5)cc4)nc3)c2)c1	Not fulfilled

Query compound follows.
**Query** Confirm if pIC50 reported for the compound Cc1ccc(NC(=O)c2cccc(C(F)(F)F)c2C)cc1C(=O)Nc1cnc(Nc2ccc(N3CCN(C)CC3)cc2)nc1 is 8 or above.
**Result** Fulfilled

----------
- studySystem: Tyrosine-protein kinase Fyn (Homo sapiens, UniProt P06241)
- Sequence (P06241 whole entry): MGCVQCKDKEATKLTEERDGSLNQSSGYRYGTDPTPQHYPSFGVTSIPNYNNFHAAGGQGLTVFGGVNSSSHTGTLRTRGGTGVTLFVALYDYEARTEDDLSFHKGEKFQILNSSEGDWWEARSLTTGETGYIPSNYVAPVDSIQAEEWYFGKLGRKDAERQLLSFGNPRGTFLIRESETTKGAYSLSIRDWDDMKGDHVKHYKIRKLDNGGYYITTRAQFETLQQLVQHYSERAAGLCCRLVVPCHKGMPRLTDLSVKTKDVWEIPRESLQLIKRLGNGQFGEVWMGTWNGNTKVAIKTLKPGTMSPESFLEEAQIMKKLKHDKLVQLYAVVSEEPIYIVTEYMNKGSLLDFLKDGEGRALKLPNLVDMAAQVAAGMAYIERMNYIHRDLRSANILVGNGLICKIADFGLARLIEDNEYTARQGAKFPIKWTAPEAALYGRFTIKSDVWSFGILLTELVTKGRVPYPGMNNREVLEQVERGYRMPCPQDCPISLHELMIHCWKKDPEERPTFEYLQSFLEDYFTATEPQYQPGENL
experimentalReadout: IC50 (nM)
Give bare numbers, in nM.

Notebook: Cc1ccc(NC(=O)c2cccc(C(F)(F)F)c2)cc1C(=O)Nc1cnc(Nc2ccc(N3CCN(C)CC3)cc2)nc1 , IC50 read as 3

----------
- Test system: Blood
- testDescription: Inhibition of LPS-induced TNFalpha production in human whole blood by ELISA
- Assay type: functional, tissue-based
For each of the compounds below, state its IC50.
Give bare numbers, in µM.

smilesStr	recordedNumber
Cc1ccc(NC(=O)c2cccc(C(F)(F)F)c2)cc1C(=O)Nc1cnc(Nc2ccc(N3CCN(C)CC3)cc2)nc1	0.718

List the reported IC50 of each compound below.
1. Cc1ccc(NC(=O)c2cc(F)cc(C(F)(F)F)c2)cc1C(=O)Nc1cnc(Nc2ccc(N3CCN(C)CC3)cc2)nc1
2. Cc1ccc(NC(=O)c2cccc(C(F)(F)F)c2C)cc1C(=O)Nc1cnc(Nc2ccc(N3CCN(C)CC3)cc2)nc1

**Result**
1. 1.01
2. 1.37

----------
- studySystem: High affinity nerve growth factor receptor (Homo sapiens, UniProt P04629)
- Sequence (P04629 whole entry): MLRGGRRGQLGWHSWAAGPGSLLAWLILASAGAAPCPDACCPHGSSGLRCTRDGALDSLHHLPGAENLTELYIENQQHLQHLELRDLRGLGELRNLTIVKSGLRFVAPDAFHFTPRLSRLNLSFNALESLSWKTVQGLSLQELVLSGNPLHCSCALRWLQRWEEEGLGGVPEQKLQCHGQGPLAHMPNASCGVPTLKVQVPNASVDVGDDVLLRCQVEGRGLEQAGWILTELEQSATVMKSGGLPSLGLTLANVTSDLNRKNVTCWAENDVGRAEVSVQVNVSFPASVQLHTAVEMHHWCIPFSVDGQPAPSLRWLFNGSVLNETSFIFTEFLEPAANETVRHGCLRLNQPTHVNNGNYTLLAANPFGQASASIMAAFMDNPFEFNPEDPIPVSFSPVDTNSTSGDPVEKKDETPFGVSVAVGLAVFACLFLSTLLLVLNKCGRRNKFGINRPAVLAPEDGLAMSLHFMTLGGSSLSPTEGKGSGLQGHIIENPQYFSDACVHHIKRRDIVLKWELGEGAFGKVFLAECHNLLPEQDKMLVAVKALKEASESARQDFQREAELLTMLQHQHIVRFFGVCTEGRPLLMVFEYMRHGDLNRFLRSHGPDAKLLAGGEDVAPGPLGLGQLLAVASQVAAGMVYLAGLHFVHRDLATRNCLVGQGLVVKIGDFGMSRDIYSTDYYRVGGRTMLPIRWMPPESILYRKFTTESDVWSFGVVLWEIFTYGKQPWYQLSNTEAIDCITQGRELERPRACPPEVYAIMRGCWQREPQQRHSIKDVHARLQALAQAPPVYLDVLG
- testDescription: Inhibition of TrkA by HTRF assay
pIC50: −log10 of the molar value.
experimentalReadout: pIC50

So for Cc1ccc(NC(=O)c2cccc(C(F)(F)F)c2)cc1C(=O)Nc1cnc(Nc2ccc(N3CCN(C)CC3)cc2)nc1 , the logged pIC50 turned out to be < 5.30

----------
- studySystem: Mitogen-activated protein kinase 14 (Homo sapiens, UniProt Q16539)
- Sequence (Q16539 whole entry): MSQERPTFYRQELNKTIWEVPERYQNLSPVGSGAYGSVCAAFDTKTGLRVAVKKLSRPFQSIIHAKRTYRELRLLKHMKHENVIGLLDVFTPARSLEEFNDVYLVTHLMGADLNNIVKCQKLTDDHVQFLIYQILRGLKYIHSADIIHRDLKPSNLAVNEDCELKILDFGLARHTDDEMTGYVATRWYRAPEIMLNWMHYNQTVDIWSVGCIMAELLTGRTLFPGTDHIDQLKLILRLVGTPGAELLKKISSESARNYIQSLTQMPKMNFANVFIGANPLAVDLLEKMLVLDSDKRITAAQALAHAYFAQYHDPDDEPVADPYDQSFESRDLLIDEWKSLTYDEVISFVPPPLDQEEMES
- testDescription: Inhibition of p38alpha by HTRF assay
pIC50: −log10 of the molar value.
Kindly return condition met if reported pIC50 is no lower than 8; return condition not met if it is lower.

Worked set:
smilesStr	studySystem	assignedCategory
Cc1ccc(C(=O)Nc2cccc(C(F)(F)F)c2)cc1C(=O)Nc1cnc(N)nc1	Mitogen-activated protein kinase 14 (Homo sapiens, UniProt Q16539)	condition not met
Cc1ccc(NC(=O)c2cccc(C(F)(F)F)c2)cc1C(=O)Nc1cncnc1	Mitogen-activated protein kinase 14 (Homo sapiens, UniProt Q16539)	condition not met
Cc1ccc(NC(=O)c2cccc(C(F)(F)F)c2)cc1-c1ccc2nc(N)ncc2c1	Mitogen-activated protein kinase 14 (Homo sapiens, UniProt Q16539)	condition met
COc1cc(OC)cc(C(=O)Nc2ccc(C)c(C(=O)Nc3cnc(Nc4ccc(N5CCN(C)CC5)cc4)nc3)c2)c1	Mitogen-activated protein kinase 14 (Homo sapiens, UniProt Q16539)	condition met

# next compound below
**Query** Given the entry Cc1ccc(NC(=O)Nc2cccc(C(F)(F)F)c2)cc1C(=O)Nc1cnc(Nc2ccc(N3CCN(C)CC3)cc2)nc1 , answer whether its pIC50 meets or surpasses 8.
**Result** condition met

----------
- System: Mus musculus
- testDescription: Plasma concentration in BALB/c mouse at 30 mg/kg, po
- Type: ADME, organism-based
- Design: dose 30 mg/kg, route oral
- testConditions: in vivo
experimentalReadout: concentration (nM)
One number for each entry, in nM.

In plain terms, Cc1ccc(NC(=O)c2cccc(C(F)(F)F)c2)cc1C(=O)Nc1cnc(Nc2ccc(N3CCN(C)CC3)cc2)nc1 has a documented concentration of 434

----------
- testDescription: Inhibition of PKBalpha by HTRF assay
pIC50: −log10 of the molar value.
experimentalReadout: pIC50

According to the records, this compound Cc1ccc(NC(=O)c2cccc(C(F)(F)F)c2)cc1C(=O)Nc1cnc(Nc2ccc(N3CCN(C)CC3)cc2)nc1 displays pIC50 of < 4.00

----------
Below are IC50 values recorded for UniProt P06239.
Sequence (P06239 whole entry): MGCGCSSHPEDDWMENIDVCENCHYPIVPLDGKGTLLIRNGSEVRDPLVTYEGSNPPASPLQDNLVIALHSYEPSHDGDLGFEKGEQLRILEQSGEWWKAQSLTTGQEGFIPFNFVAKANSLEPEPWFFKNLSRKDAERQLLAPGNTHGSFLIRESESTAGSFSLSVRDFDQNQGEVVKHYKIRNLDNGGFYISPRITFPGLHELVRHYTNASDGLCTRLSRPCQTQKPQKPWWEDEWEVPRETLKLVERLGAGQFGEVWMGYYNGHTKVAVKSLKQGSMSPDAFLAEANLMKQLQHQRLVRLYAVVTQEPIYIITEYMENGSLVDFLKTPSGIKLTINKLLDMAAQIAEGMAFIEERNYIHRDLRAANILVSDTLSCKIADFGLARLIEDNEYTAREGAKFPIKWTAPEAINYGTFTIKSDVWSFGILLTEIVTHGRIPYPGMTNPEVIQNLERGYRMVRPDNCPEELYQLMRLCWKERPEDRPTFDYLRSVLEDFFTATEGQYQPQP
Give bare numbers, in nM.

smilesStr	unitsOfMeasure	IC50
CC(=O)Nc1ccc(C)c(C(=O)Nc2cnc(Nc3ccc(N4CCN(C)CC4)cc3)nc2)c1	nM	48
Cc1ccc(NC(=O)Nc2cccc(C(F)(F)F)c2)cc1C(=O)Nc1cnc(N)nc1	nM	63
Cc1ccc(NC(=O)c2cccc(C(F)(F)F)c2)cc1C(=O)Nc1cnc(Nc2ccc(N3CCN(C)CC3)cc2)nc1	nM	0.6

Please state IC50 for every compound in the list that follows.
1. Cc1ccc(NC(=O)Nc2cccc(C(F)(F)F)c2)cc1C(=O)Nc1cnc(Nc2ccc(N3CCN(C)CC3)cc2)nc1
2. CN1CCN(c2ccc(Nc3ncc(NC(=O)c4c(Cl)cccc4Cl)cn3)cc2)CC1
3. Cc1ccc(NC(=O)c2cccc(C(F)(F)F)c2)cc1C(=O)Nc1cnc(NCCCN2CCOCC2)nc1
4. Cc1ccc(NC(=O)c2cccc(C(F)(F)F)c2)cc1-c1ccc2nc(N)ncc2c1
5. Cc1ccc(NC(=O)Nc2cccc(C(F)(F)F)c2)cc1-c1ccc2nc(N)ncc2c1

**Result**
[0.6, 10, 24, 0.4, 7]

----------
- studySystem: UniProt P52333
- Sequence (P52333 whole entry): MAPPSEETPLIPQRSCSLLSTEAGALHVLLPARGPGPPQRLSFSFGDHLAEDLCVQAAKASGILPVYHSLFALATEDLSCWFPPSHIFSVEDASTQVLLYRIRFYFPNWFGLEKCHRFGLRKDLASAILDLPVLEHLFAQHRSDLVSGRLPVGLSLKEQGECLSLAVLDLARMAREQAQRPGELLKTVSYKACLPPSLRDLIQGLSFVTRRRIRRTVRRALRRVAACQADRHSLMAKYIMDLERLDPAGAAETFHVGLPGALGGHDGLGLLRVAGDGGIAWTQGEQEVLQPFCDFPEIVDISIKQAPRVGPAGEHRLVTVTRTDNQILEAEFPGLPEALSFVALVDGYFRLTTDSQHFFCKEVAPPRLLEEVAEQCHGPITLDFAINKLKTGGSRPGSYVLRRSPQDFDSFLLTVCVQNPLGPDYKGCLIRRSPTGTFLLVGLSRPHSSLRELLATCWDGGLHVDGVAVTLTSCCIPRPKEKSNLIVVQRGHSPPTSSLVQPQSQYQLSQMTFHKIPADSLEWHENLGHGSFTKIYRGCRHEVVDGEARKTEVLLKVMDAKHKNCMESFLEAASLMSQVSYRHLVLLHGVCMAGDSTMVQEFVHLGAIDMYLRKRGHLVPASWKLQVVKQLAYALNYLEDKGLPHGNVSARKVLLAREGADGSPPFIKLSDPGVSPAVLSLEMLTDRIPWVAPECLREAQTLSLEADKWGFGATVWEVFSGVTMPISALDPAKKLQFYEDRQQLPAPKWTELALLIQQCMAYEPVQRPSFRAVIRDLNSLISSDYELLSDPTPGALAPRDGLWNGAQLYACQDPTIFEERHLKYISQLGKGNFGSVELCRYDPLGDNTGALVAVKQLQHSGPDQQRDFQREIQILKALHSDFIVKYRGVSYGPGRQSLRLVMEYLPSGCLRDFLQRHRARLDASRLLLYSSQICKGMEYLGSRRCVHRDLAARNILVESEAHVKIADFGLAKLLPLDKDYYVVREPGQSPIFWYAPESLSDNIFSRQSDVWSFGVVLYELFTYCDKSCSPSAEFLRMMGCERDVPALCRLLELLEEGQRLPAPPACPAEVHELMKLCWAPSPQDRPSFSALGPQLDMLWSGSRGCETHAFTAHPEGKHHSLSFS
experimentalReadout: IC50

smilesStr	result
Cc1ccc(NC(=O)Nc2cccc(C(F)(F)F)c2)cc1-c1ccc2nc(N)ncc2c1	3.04 µM

Value sought for every listed compound: IC50.
1. Cc1ccc(NC(=O)Nc2cccc(C(F)(F)F)c2)cc1C(=O)Nc1cnc(N)nc1
2. COc1cc(OC)cc(C(=O)Nc2ccc(C)c(C(=O)Nc3cnc(Nc4ccc(N5CCN(C)CC5)cc4)nc3)c2)c1

**Result**
> 25 µM
> 25 µM

Would you mind giving IC50 for every compound in the list below?
1. Cc1ccc(NC(=O)c2cccc(C(F)(F)F)c2)cc1C(=O)Nc1cnc(NCCCN2CCOCC2)nc1
2. CCc1ccc(NC(=O)c2ccc3c(c2)OC(F)(F)O3)cc1C(=O)Nc1cnc(Nc2ccc(N3CCN(C)CC3)cc2)nc1

**Result**
1. > 25 µM
2. > 25 µM

Look up IC50 for the entries below, preserving their order.
1. Cc1ccc(NC(=O)c2cccc(C(F)(F)F)c2)cc1C(=O)Nc1cnc(N)nc1
2. Cc1ccc(NC(=O)c2cccc(C(F)(F)F)c2)cc1C(=O)Nc1cnc(Nc2ccc(N3CCN(C)CC3)cc2)nc1
3. Cc1ccc(NC(=O)c2ccccc2)cc1C(=O)Nc1cnc(Nc2ccc(N3CCN(C)CC3)cc2)nc1
4. Cc1ccc(C(=O)Nc2cccc(C(F)(F)F)c2)cc1C(=O)Nc1cnc(Nc2ccc(N3CCN(C)CC3)cc2)nc1
5. Cc1ccc(NC(=O)c2cccc(C(F)(F)F)c2C)cc1C(=O)Nc1cnc(Nc2ccc(N3CCN(C)CC3)cc2)nc1

**Result**
["> 25 µM", "> 25 µM", "> 25 µM", "0.438 µM", "> 25 µM"]

Okay, here is my list. What is IC50 for each of these?
1. CN1CCN(c2ccc(Nc3ncc(NC(=O)c4c(Cl)cccc4Cl)cn3)cc2)CC1
2. Cc1ccc(NC(=O)c2cccc(C(F)(F)F)c2)cc1C(=O)Nc1cnc(NC2CCN(C)CC2)nc1

**Result**
> 25 µM
> 25 µM

Values compiled from ChEMBL document CHEMBL1144680.
